Measurement Protocol: PK study in non-human primates, single sc dose 5 nmol/kg, plasma ELISA
Cond: monkey, single sc dose 5 nmol/kg

- Molecule: "MLC090: fusion polypeptide SEQ ID NO: 379 conjugated with Moiety C at 39C of Linker (conjugate, Moiety C conjugated at linker Cys39) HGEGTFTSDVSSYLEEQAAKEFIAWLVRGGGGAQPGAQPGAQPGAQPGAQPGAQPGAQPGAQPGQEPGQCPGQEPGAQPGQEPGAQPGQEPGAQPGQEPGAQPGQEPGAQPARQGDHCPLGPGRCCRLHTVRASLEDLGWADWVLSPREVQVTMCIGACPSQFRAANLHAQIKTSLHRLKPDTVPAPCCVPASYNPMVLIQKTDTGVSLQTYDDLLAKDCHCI"
  AUC0-96 h [µM·h]: 1.987
- Molecule: "MLC013: fusion polypeptide SEQ ID NO: 260 conjugated with Moiety A at 1K of Linker (conjugate, Moiety A conjugated at linker K1) HGEGTFTSDVSSYLEEQAAREFIAWLVRGGGKQEPGAQPGQEPGAQPGQEPGAQPGQEPGAQPGQEPGAQPGQEPGAQPGAQPGAQPGAQPGAQPGAQPGAQPGAQPGAQPARQGDHCPLGPGRCCRLHTVRASLEDLGWADWVLSPREVQVTMCIGACPSQFRAANLHAQIKTSLHRLRPDTVPAPCCVPASYNPMVLIQRTDTGVSLQTYDDLLARDCHCI"
  AUC0-96 h [µM·h]: 1.435
- Molecule: "MLC093: fusion polypeptide SEQ ID NO: 381 conjugated with Moiety B at 33C of Linker (conjugate, Moiety B conjugated at linker Cys33) HGEGTFTSDVSSYLEEQAAKEFIAWLVRGGGGAQPGAQPGAQPGAQPGAQPGAQPGAQPGAQPCQEPGAQPGQEPGAQPGQEPGAQPGQEPGAQPGQEPGAQPGQEPGAQPARQGDHCPLGPGRCCRLHTVRASLEDLGWADWVLSPREVQVTMCIGACPSQFRAANLHAQIKTSLHRLKPDTVPAPCCVPASYNPMVLIQKTDTGVSLQTYDDLLAKDCHCI"
  AUC0-96 h [µM·h]: 3.843
